system: TK-10 renal; assay: NCI tumour cell line growth inhibition, 48 h
experimentalReadout: TGI

Reference set (5 entries):
>  <molecule>
CCOC(=O)c1cc(-c2ccc(Cl)cc2)c([N+](=O)[O-])n1C

>  <targetUnderTest>
TK-10 renal

>  <endpointResult>
> 10 µM

$$$$
>  <molecule>
CC[C@@]1(O)C(=O)OCc2c1cc1n(c2=O)Cc2c-1nc1ccccc1c2/C=N/OC(C)(C)C

>  <targetUnderTest>
TK-10 renal

>  <endpointResult>
3.52 µM

$$$$
>  <molecule>
CCCCOC(=O)C1CN2C(=NC1(C(F)(F)F)C(F)(F)F)Sc1ccccc12 (stereo not drawn)

>  <targetUnderTest>
TK-10 renal

>  <endpointResult>
> 100 µM

$$$$
>  <molecule>
O=C(CSc1nnc(-c2ccc(N=Cc3ccc(Cl)cc3)cc2)o1)Nc1cccc(Cl)c1

>  <targetUnderTest>
TK-10 renal

>  <endpointResult>
> 100 µM

$$$$
>  <molecule>
CC(Oc1ccc2cc(C(=O)c3ccccc3)c(=O)oc2c1)C(=O)O (stereo not drawn)

>  <targetUnderTest>
TK-10 renal

>  <endpointResult>
> 100 µM

$$$$

# molecule CC(=O)OCc1cn(S(=O)(=O)c2ccc(C)cc2)cn1 ; its TGI = > 100 µM

----------
Below, each entry is listed alongside its reported GI50.
test system: OVCAR-8 ovarian; assay: NCI tumour cell line growth inhibition, 48 h

// known answers, use as guide
>  <givenSmiles>
O=S(=O)(NCCCNc1cc(-c2cn(-c3ccccc3)nc2-c2cccc(O)c2)ccn1)c1ccc(Cl)cc1

>  <GI50>
2.11 µM

$$$$
>  <givenSmiles>
C=C1N(C)c2ccc(Cl)cc2C1(C)C

>  <GI50>
9.67 µM

$$$$
>  <givenSmiles>
COc1ccc(Cn2c(Br)c3c(c2-c2cc(OC)c(OC)c(OC)c2)CCc2sc(NC(C)=O)nc2-3)cc1

>  <GI50>
4.7 µM

$$$$

Lab book: GI50 of O=C(CCl)Nc1ccc2c(c1)C(=O)c1ccc(NC(=O)CCl)cc1C2=O noted as 0.439 µM

For record C/C(=N\NC(=O)c1ccncc1)c1ccc(O)cc1O the listed GI50 is 2.93 µM

----------
system: MALME-3M melanoma; experiment: NCI tumour cell line growth inhibition, 48 h
experimentalReadout: TGI (µM)
Give your result in µM as a bare value.

Consider the reported TGI for these compounds:
>  <compound>
Nc1nc2c(c3cnccc13)C(c1cccc(Cl)c1)Cc1cnccc1-2 (stereo not given)

>  <experimentalReadout>
TGI

>  <endpointResult>
17.8

$$$$
>  <compound>
CC(=O)Nc1sc2c(c1-c1nc3ccccc3s1)CNC2

>  <experimentalReadout>
TGI

>  <endpointResult>
8.75

$$$$
>  <compound>
O=CC1(C2(C=O)c3ccccc3-c3ccccc32)c2ccccc2-c2ccccc21

>  <experimentalReadout>
TGI

>  <endpointResult>
5.94

$$$$

MALME-3M melanoma TGI of CCOC(=O)C1(Cc2ccccc2)Cc2ccccc2C1=O (stereo not given) is 52.3

Record C[C@]12CCC(=O)C=C1CC[C@@H]1C2CC[C@]2(C)Nc3c(ncn3-c3ccc(F)cc3)CC12 (stereo not given in full) has MALME-3M melanoma TGI equal to 70.4

----------
system: RXF-631 renal; assay: NCI tumour cell line growth inhibition, 48 h
experimentalReadout: TGI

// solved cases for TGI follow
>  <compound>
Cc1cc(NCCCCCCNc2cc(C)nc3ccc(Cl)cc23)c2cc(Cl)ccc2n1

>  <experimentalReadout>
TGI

>  <endpointResult>
> 100 µM

$$$$
>  <compound>
CC(C)CC(=O)NS(=O)(=O)c1ccccc1

>  <experimentalReadout>
TGI

>  <endpointResult>
> 100 µM

$$$$
>  <compound>
CCC(/C(=N\Nc1c(Cl)cc(Cl)cc1Cl)c1ccccc1)n1ccnc1C (configuration not stated)

>  <experimentalReadout>
TGI

>  <endpointResult>
25 µM

$$$$
>  <compound>
N#CC1=C(c2ccccc2)C(O)(c2ccccc2)NC1=O (configuration not stated)

>  <experimentalReadout>
TGI

>  <endpointResult>
> 100 µM

$$$$
>  <compound>
O=c1[nH]c(=O)n(C2CC(O)C(CO)O2)cc1C#Cc1cc(F)cc(F)c1 (configuration not stated)

>  <experimentalReadout>
TGI

>  <endpointResult>
> 100 µM

$$$$
>  <compound>
CN1OC2OC(=O)OC2[C@H]1[C@H]1O[C@H](c2ccccc2)OC1(C)c1cc(OC(=O)c2ccccc2)ccc1OC(=O)c1ccccc1 (some centres not stated)

>  <experimentalReadout>
TGI

>  <endpointResult>
> 50 µM

$$$$

CCC/C(=N\NC(=O)c1cc2ccccc2cc1O)C(CC)C(=O)CCC(=O)N(Cc1ccccc1)Cc1ccccc1 (configuration not stated) has a reported TGI of > 100 µM
